- Experiment: GMX001 plasma PTX concentration after systemic infusion (LC/MS)
- Format: in vivo, porcine
- Experimental parameters: pig, intravenous, 175 mg/m^2, Blood PTX concentration, systemic infusion 175 mg/m^2 over 3 hours, animal 19P0997, 3 hr
Readout: concentration at 3 h
Answer shape: numeric part, then the unit.

Prompt: Name the recorded concentration at 3 h for CC(=O)O[C@H]1C(=O)[C@@]2(C)[C@H]([C@H](OC(=O)c3ccccc3)[C@]3(O)C[C@H](OC(=O)[C@H](O)[C@@H](NC(=O)c4ccccc4)c4ccccc4)C(C)=C1C3(C)C)[C@]1(OC(C)=O)CO[C@@H]1C[C@@H]2O .
Completion: 67.1 µg/mL
